Molecular target: T1, cynomolgus (cyno) TMEM106B (cynomolgus, UniProt Q9NUM4 2-274 (human entry))
T1 construct: Full-length cDNA transiently transfected into HEK293 cells
Experiment: flow cytometry, HEK293 cells transiently transfected with cyno TMEM106B
MEASUREMENT_KIND: fold-change in binding over parental HEK293 cells
State the value with its unit after it.

Consider the binder shown here: TM-82 (antibody, V domains shown, Purified from mouse hybridoma) VH: QVQLQQSGAELVRPGTSVRVSCKASGYAFTNYLIEWIKQRPGQGLEWIGVINPGSGITDYSEKFKGKARLTADKSSSTAYMQLSSLTSDDSAVYFCTRSPFITTVVADYWGQGTTVTVSS VL: DVVVTQTPLSLPVSFGDQVSISCRSSQSLANTYGNTYLSWYLHTPGQSPQLLIFGISNRFSGVPDRFSGSGSGTDFTLKISTIKPEDLGVYYCLQGTHPPRTFGGGTKLEMK What is its recorded fold-change in binding over parental HEK293 cells?
1.49 fold

For the binder shown here, TM-62 (antibody, V domains shown, Purified from mouse hybridoma) VH: QVQLQQPGTELVRPGSSVKLSCKAAGYTFTRYWMHWVKQRPIQGLEWIGNIDPSDSETQYNPKFKDKATLTVDRSSSTAYMHLSSLTSEDSAVYYCARLTTLDYAMDYWGQGTSVTVSS VL: QIVLTQSPAIMSASPGEKVTISCSASSSVSYMYWYQQKAGSSPKPWIHRTSNLASGVPARFSGSGSGTSYSLTIRSMEAEDAATYYCQQYHSYPPTFGVGTKLELK , give the reported fold-change in binding over parental HEK293 cells.
2.93 fold

Param item = TM-56 (antibody, V domains shown, Purified from mouse hybridoma) VH: QVHLQQSGAELAKPGASVKLSCKASGYTFTSYWMHWVKQRPGQGLEWIGYINPSSGYSKYNQRFKDKATLTADKSSTTAYMHLSSLTYADSAVYYCTREGGSISDWYFDVWGTGTTVTVSS VL: DIEMTQAAPSVPVTPGESVSISCRSSKSLLQNNGNTYLYWFLQRPGQPPQLLIYRMSNLASGVPDRFSGSGSGTAFTLRISRVEAEDVGVYYCMQHLEYPYTFGGGTKLEIK ; retrieve measured fold-change in binding over parental HEK293 cells.
4.49 fold

Which measured fold-change in binding over parental HEK293 cells value corresponds to TM-66 (antibody, V domains shown, Purified from mouse hybridoma) VH: EVMLVESGGALVEPGGSLKLSCAASGITFSNYAMSWIRQTPEKRLEWVATIGSVGSYTYYPDSVKGRFTISRDNARNTLYLQMSSLRSEDTAMYYCARQEGSSHFDYWGQGTTLTVSS VL: DVVVTQTPPSLPVSFGDQVSISCRSSQSLVNSYGKTFLSWYLHKPGQSPQLLIYGISNRFSGVPDRFSGSGSGTVFTLKISTIKPEDLGMYYCLQGTHPPLTFGAGTKLEMK ?
7.13 fold

Which value of fold-change in binding over parental HEK293 cells has been reported for TM-90 (antibody, V domains shown, Purified from mouse hybridoma) VH: QVHLQQSGPELVKPGASVKLSCKASGYPFTSYDINWVKQRPGQGLEWIGWIYPRDGNAKYNEKFKGKATLTVDTSSSTAYMELHSLTSENSAVYFCARVSDYHGGYGMDYWGQGTSVTVSS VL: DVLMTQTPLSLPVSLGDQASISCRSSQSFVHGNGNTYLEWYLQKPGQSPKLLIYKVSHRFSGVPDRFSGSGSGTDFTLKITRVEAEDLGVYYCFQNSHVPHTFGGGTKLEIK in the records?
1.32 fold
